Assay info: parental HEK293 membrane potential modulation, confirmation, counter-screen for TRPC6 modulator project, cell-based (AID 488924)
Test parameters: parental HEK293, membrane potential dye fluorescence; at 10 µM
This is one part of the list. Activity calls are given as the source filed them.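 How the source made its calls: active means membrane potential signal moves up or down beyond 5 SD from buffer-only wells, on both duplicate plates; inactive means the rest.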
Classes to choose from: Yes (active), No (inactive)

Molecule | Class name
CCN(CC)S(=O)(=O)c1ccc(N2CC(C(=O)NCc3cccnc3)CC2=O)cc1 (stereo unspecified) | No

What classification did CCCN(CCc1ccccc1)C1CCc2c(O)cccc2C1 (stereo unspecified) end up with in this test? Yes

###

Test system: transient receptor potential cation channel C4 beta (TRPC4), mouse
Assay info: activators of mouse TRPC4 channel, confirmation, cell-based, second round, Fluo4, HEK293 TRPC4beta/mu-opioid, 1 µM (AID 2461)
Test parameters: Fluo4 calcium fluorescence, at 1 µM
Active and inactive are the calls of the source.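 Rule for the calls: active = primary screen active and over 50% activation in each of two duplicate runs; inactive = the rest.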
Classes to choose from: yes (1) = active, no (0) = inactive

Molecule | Class name
COc1ccc(-c2cc(C(=O)NCC(c3ccccc3)N(C)C)c3ccccc3n2)cc1OC (stereo unspecified) | no (0)

What classification did COc1cc(/C=C2/SC(=S)N(Cc3ccccc3)C2=O)cc(Cl)c1O end up with in this test? no (0)

What classification did Cc1cc(OCCNCCO)cc(C)c1Cl end up with in this test? yes (1)

What classification did Cc1ccc(OCC(=O)NNC(=S)NC(=O)C(C)(C)C)c(Br)c1 end up with in this test? no (0)

What classification did CCCOc1ccc(C(=O)NNC(=S)NC(=O)c2ccccc2)cc1 end up with in this test? no (0)
